# System: human spermatozoa
# Assay Remarks: acrosome-reacted (PNA+) sperm after agonist cocktail, percent change vs DMSO (capacitating); higher = more of the measured sperm population than DMSO, for viability, fewer PI-positive (dead) cells than DMSO
# Study Conditions: incubation time: 3h; 29.9 µM; capacitating + agonist cocktail 1h
Counter-ions that a name gives are not always drawn.
Readout: acrosome-reacted (%)
Answer format: numeric, % implied, no suffix.

Request: Assign acrosome-reacted to the following record: COCC(=O)O[C@]1(CCN(C)CCCc2nc3ccccc3[nH]2)CCc2cc(F)ccc2[C@@H]1C(C)C [Mibefradil]
Result: 38.1

Request: Report acrosome-reacted, nothing else, for this compound: Nc1nc(Cl)nc2c1ncn2[C@@H]1O[C@H](CO)[C@@H](O)[C@@H]1F [Clofarabine]
Result: 104

Request: Consider the compound O=C(Nc1ccc([N+](=O)[O-])cc1Cl)c1cc(Cl)ccc1O [Niclosamide] and give its recorded acrosome-reacted.
Result: 4.65

Request: Return value of acrosome-reacted for input O=C(O)c1cccnc1Nc1cccc(C(F)(F)F)c1 [Niflumic acid] , no commentary.
Result: -0.457

Request: Given CCCCN1C[C@@H](O)[C@H](O)[C@H](O)[C@@H]1CO [Miglustat] , respond with its acrosome-reacted.
Result: -6.96

Request: Read off the recorded acrosome-reacted for CC(C)[C@H]1c2ccc(F)cc2CC[C@@]1(CCN(C)CCCc1nc2ccccc2[nH]1)OC(=O)C1CC1 [NNC 55-0396 dihydrochloride]
Result: 51.1

Request: Give acrosome-reacted for `COc1cc2ncn(-c3cc(OCc4ccccc4C(F)(F)F)c(C(N)=O)s3)c2cc1OC`
Result: 120

Cited source: the supplement of paper PMC10878532
